Test system: SF-539 CNS
assay-overview: NCI-60 one-dose screen, 48 h (100 = growth as untreated, 0 = no growth, -100 = all killed)
condition-set: 10 µM unless noted
The panel holds about 83,000 compounds, 20% with a hit somewhere; the sample as a whole holds those more often.
growth by entry:
// return numeric value only (unit: %, not printed)

OC(c1ccc(Cl)cc1)(c1ccc(Cl)cc1)C(O)(c1ccc(Cl)cc1)c1ccc(Cl)cc1 | 87.2
CCN(CC)c1ccc2cc(C(Nc3ccc(C)cc3)c3nnnn3C(C)(C)C)c(=O)oc2c1 (centres undefined) | 103
CC(C)c1ccc(C(=O)Nc2sc3c(c2C#N)CCC(=O)C3)cc1 | -48.4

Consider the compound shown here: COc1ccc(-c2cc(-c3ccc(Cl)cc3)nc(NCCCCNc3ccnc4cc(Cl)ccc34)n2)cc1 What is its recorded growth?
64.8

###

Tested on: NCI/ADR-RES ovarian
assay-overview: NCI-60 one-dose screen, 48 h
condition-set: 10 µM unless noted
Procedure: Growth inhibition of the NCI/ADR-RES human […] tumor cell line is measured as a screen for anti-cancer activity. Cells are grown in 96 well plates and exposed to the test compound for 48 hours. Compounds are tested at a single concentration, which is 10^-5 M for most compounds. The reported endpoint is percent growth (GI% or GIPRCNT), where numbers from 0 - 100% represent growth inhibition, and numbers from -100% - 0 represent cell death. For example, a value of 40 represents 60% growth inhibition. […]
Compounds without any hit were thinned out: in the full panel of roughly 83,000, 20% have a hit. Active and inactive are the calls of the source. How the source made its calls: active means growth percent below 10; inactive means the rest.
Could you please pick one outcome from this set? true for active, false for inactive

Would you please look over these solved cases?
COc1ccc2c(c1)c(-c1noc(C(=O)c3cn(C)c4ncc(Br)cc34)n1)cn2C | false
CCCCNC(=O)NS(=O)(=O)Cc1ccccc1 | false
C[n+]1c(-c2ccccc2)c2cc(N)ccc2c2ccccc21 | false

// outcome(item) with item = CC(C)=CCC[C@](C)(O)[C@H]1CC[C@]2(C)[C@@H]1CC[C@@H]1[C@@]3(C)CC/C(=N/O)C(C)(C)[C@@H]3CC[C@]12C
true

CCCCN(CCCC)CC(O)c1ccc(OCc2ccccc2)c2ccccc12 (configuration not stated) ?
false

CCOc1cccc2c(NC(C)CCCN(CC)CC)c(C)cnc12 (configuration not stated) ?
false

CC(=O)n1cc(C=O)c2ccccc21 ?
false

###

Test system: OVCAR-3 ovarian
assay-overview: NCI-60 one-dose screen, 48 h (100 = growth as untreated, 0 = no growth, -100 = all killed)
condition-set: 10 µM unless noted
Procedure: Growth inhibition of the OVCAR-3 human tumor cell line is measured as a screen for anti-cancer activity. Cells are grown in 96 well plates and exposed to the test compound for 48 hours. Compounds are tested at a single concentration, which is 10^-5 M for most compounds. The reported endpoint is percent growth (GI% or GIPRCNT), where numbers from 0 - 100% represent growth inhibition, and numbers from -100% - 0 represent cell death. For example, a value of 40 represents 60% growth inhibition. […]
The panel holds about 83,000 compounds, 20% with a hit somewhere; the sample as a whole holds those more often.
measured-parameter: growth (%)
// return numeric value only (unit: %, not printed)

Example results:
Cc1cc(C)c(-c2cc(O)c(-c3c(C)cc(C)cc3C)cc2O)c(C)c1 | -25.7
c1ccc(-c2nnc(-c3c[nH]c4ncccc34)s2)cc1 | 88.5

Consider the molecule shown here: COc1ccc(C(=O)CCC(=O)O)cc1 What is its recorded growth?
79

COc1cc2c(=O)[nH]c3cc([N+](=O)[O-])ccc3c2cc1[N+](=O)[O-] ?
63.7
